Assay: S9 clearance assay
Format: in vitro ADME
Conditions: S9 rat liver fraction, 2 μM, average ± SEM n = 3; read-out: Predicted CLint (converted)
We begin with a simple list: items and their reported CLint scaled.

smiles-text	CLint scaled (mL/min/kg)
COCCOCCOc1ccc(C=Nc2ccccc2N=Cc2ccc(OCCOCCOC)cc2O)c(O)c1.[Ga+3]	27.8
Oc1cc(OCCN2CCOCC2)ccc1C=Nc1ccccc1N=Cc1ccc(OCCN2CCOCC2)cc1O.[Ga+3]	30.2
O=C(O)CCOc1ccc(C=Nc2ccccc2N=Cc2ccc(OCCC(=O)O)cc2O)c(O)c1.[Ga+3]	398
Oc1ccccc1/C=N/c1ccccc1/N=C/c1ccccc1O.[Ga+3]	136

---

Assay: Caco-2 permeability screening
Format: in vitro ADME
Conditions: human, Caco-2, pH 7.4; known drug standards; read-out: Papp Apical to Basolateral

compound	unit-of-measurement	Papp A→B at 60 min, 20 μM
CN(Cc1cnc2nc(N)nc(N)c2n1)c1ccc(C(=O)N[C@@H](CCC(=O)O)C(=O)O)cc1 [Methotrexate, reference compound]	×10⁻⁶ cm/s	0.02
CN(C)C(=O)C(CCN1CCC(O)(c2ccc(Cl)cc2)CC1)(c1ccccc1)c1ccccc1 [Loperamide, reference compound]	×10⁻⁶ cm/s	3.51

---

Assay: RBC/PL partitioning equilibrium in whole blood
Details: 1 μg/mL, pooled sodium heparin whole blood, 2 hours, LC-MS/MS (ICP-MS for Ga^3+)
measurement-type: Heparin KRBC/PL

smiles-text	measured-value
Oc1cc(OCCN2CCOCC2)ccc1C=Nc1ccccc1N=Cc1ccc(OCCN2CCOCC2)cc1O.[Ga+3]	1.03
OCCCOc1ccc(/C=N/c2ccccc2/N=C/c2ccc(OCCCO)cc2O)c(O)c1.[Ga+3]	1.15
CC(=Nc1ccccc1N=Cc1ccc(OCCN2CCOCC2)cc1O)c1ccccc1O.[Ga+3]	37.4
CC(=Nc1ccccc1/N=C/c1ccc(OCCCO)cc1O)c1ccccc1O.[Ga+3]	1.48
O=C(O)CCOc1ccc(C=Nc2ccccc2N=Cc2ccc(OCCC(=O)O)cc2O)c(O)c1.[Ga+3]	8098
Oc1ccccc1/C=N/c1ccccc1/N=C/c1ccccc1O.[Ga+3]	0.57
COCCOCCOc1ccc(C=Nc2ccccc2N=Cc2ccc(OCCOCCOC)cc2O)c(O)c1.[Ga+3]	1.34
COCCOc1ccc(/C=N/c2ccccc2/N=C/c2ccc(OCCOC)cc2O)c(O)c1.[Ga+3]	0.59
CCCCOc1ccc(/C=N/c2ccccc2/N=C/c2ccc(OCCCC)cc2O)c(O)c1.[Ga+3]	1.24
COCCOc1ccc(/C=N/c2ccccc2N=C(C)c2ccccc2O)c(O)c1.[Ga+3]	1.86

---

Test: Caco-2 permeability screening
Type: in vitro ADME
Details: Caco-2, 20 μM, 30 and 60 min, average ± SEM; read-out: Papp apical to basolateral
Entries whose Papp A→B is below 0.04 ×10⁻⁶ cm/s take Criterion met; entries at or above 0.04 ×10⁻⁶ cm/s take Criterion not met.

molecule	label
Oc1ccccc1/C=N/c1ccccc1/N=C/c1ccccc1O.[Ga+3] [GaSal, gallium salophen]	Criterion not met
CC(=Nc1ccccc1/N=C/c1ccc(OCCCO)cc1O)c1ccccc1O.[Ga+3] [GaSal-12]	Criterion not met
O=C(O)CCOc1ccc(C=Nc2ccccc2N=Cc2ccc(OCCC(=O)O)cc2O)c(O)c1.[Ga+3] [GaSal-4]	Criterion met
CC(=Nc1ccccc1N=Cc1ccc(OCCC(=O)O)cc1O)c1ccccc1O.[Ga+3] [GaSal-9]	Criterion met
CCCCOc1ccc(/C=N/c2ccccc2/N=C/c2ccc(OCCCC)cc2O)c(O)c1.[Ga+3] [GaSal-15]	Criterion not met
COCCOc1ccc(/C=N/c2ccccc2/N=C/c2ccc(OCCOC)cc2O)c(O)c1.[Ga+3] [GaSal-13]	Criterion not met
CC(=Nc1ccccc1N=Cc1ccc(OCCN2CCOCC2)cc1O)c1ccccc1O.[Ga+3] [GaSal-8]	Criterion met
COCCOc1ccc(/C=N/c2ccccc2N=C(C)c2ccccc2O)c(O)c1.[Ga+3] [GaSal-14]	Criterion met
OCCCOc1ccc(/C=N/c2ccccc2/N=C/c2ccc(OCCCO)cc2O)c(O)c1.[Ga+3] [GaSal-11]	Criterion met
COCCOCCOc1ccc(C=Nc2ccccc2N=Cc2ccc(OCCOCCOC)cc2O)c(O)c1.[Ga+3] [GaSal-5]	Criterion met

---

Assay: Caco-2 permeability screening
Assay type: in vitro ADME
Conditions: human, Caco-2, 20 μM; read-out: Efflux ratio B to A/A to B
We begin with a simple list: items and their reported efflux ratio at 20 µM.

compound	efflux ratio at 20 µM
CC(=Nc1ccccc1/N=C/c1ccc(OCCCO)cc1O)c1ccccc1O.[Ga+3] [GaSal-12]	3.4
COCCOCCOc1ccc(C=Nc2ccccc2N=Cc2ccc(OCCOCCOC)cc2O)c(O)c1.[Ga+3] [GaSal-5]	107
CC(=Nc1ccccc1N=Cc1ccc(OCCC(=O)O)cc1O)c1ccccc1O.[Ga+3] [GaSal-9]	> 22.5
CC(=Nc1ccccc1N=Cc1ccc(OCCN2CCOCC2)cc1O)c1ccccc1O.[Ga+3] [GaSal-8]	> 5.75

---

Assay: Caco-2 permeability screening
Assay type: in vitro ADME
Details: Caco-2, with OCT1 inhibitor cocktail (1 μM verapamil and cisplatin); read-out: Papp Apical to Basolateral

smiles-text	Papp A→B, ×10⁻⁶ cm/s
Oc1ccccc1/C=N/c1ccccc1/N=C/c1ccccc1O.[Ga+3]	1.81

---

Assay: RBC/PL partitioning equilibrium in whole blood
Details: 1 μg/mL, sodium heparin whole blood, 6 selectivity lots, 2 hours
We begin with a simple list: items and their reported ICP-MS calculated KRBC/PL.

compound	ICP-MS calculated KRBC/PL
COCCOCCOc1ccc(C=Nc2ccccc2N=Cc2ccc(OCCOCCOC)cc2O)c(O)c1.[Ga+3]	0.36
COCCOc1ccc(/C=N/c2ccccc2N=C(C)c2ccccc2O)c(O)c1.[Ga+3]	0.34
Oc1ccccc1/C=N/c1ccccc1/N=C/c1ccccc1O.[Ga+3]	0.89
COCCOc1ccc(/C=N/c2ccccc2/N=C/c2ccc(OCCOC)cc2O)c(O)c1.[Ga+3]	0.48
O=[N+]([O-])[O-].O=[N+]([O-])[O-].O=[N+]([O-])[O-].[Ga+3] [Ga^3+, gallium nitrate, reference compound]	0.08

---

We begin with a simple list: items and their reported logP.
Experiment: Experimental LogP by reverse-phase HPLC method
Assay type: physicochemical
Details: extrapolated log kw
measurement-type: logP

smiles-text	measurement-type	measured-value
COCCOCCOc1ccc(C=Nc2ccccc2N=Cc2ccc(OCCOCCOC)cc2O)c(O)c1.[Ga+3]	logP	3.95
COCCOc1ccc(/C=N/c2ccccc2/N=C/c2ccc(OCCOC)cc2O)c(O)c1.[Ga+3]	logP	3.65
Oc1ccccc1/C=N/c1ccccc1/N=C/c1ccccc1O.[Ga+3]	logP	2.58
CC(=Nc1ccccc1/N=C/c1ccc(OCCCO)cc1O)c1ccccc1O.[Ga+3]	logP	3.19
Oc1cc(OCCN2CCOCC2)ccc1C=Nc1ccccc1N=Cc1ccc(OCCN2CCOCC2)cc1O.[Ga+3]	logP	3.87
CCCCOc1ccc(/C=N/c2ccccc2/N=C/c2ccc(OCCCC)cc2O)c(O)c1.[Ga+3]	logP	5.99
CC(=Nc1ccccc1N=Cc1ccc(OCCC(=O)O)cc1O)c1ccccc1O.[Ga+3]	logP	3.03
O=C(O)CCOc1ccc(C=Nc2ccccc2N=Cc2ccc(OCCC(=O)O)cc2O)c(O)c1.[Ga+3]	logP	3.33

---

Experiment: RBC/PL partitioning equilibrium in whole blood
Conditions: 0.1 μg/mL, pooled K2EDTA whole blood, 2 hours, LC-MS/MS (ICP-MS for Ga^3+)

smiles-text	K2EDTA KRBC/PL
CC(=Nc1ccccc1N=Cc1ccc(OCCN2CCOCC2)cc1O)c1ccccc1O.[Ga+3]	0.12
COCCOc1ccc(/C=N/c2ccccc2N=C(C)c2ccccc2O)c(O)c1.[Ga+3]	0.69
Oc1cc(OCCN2CCOCC2)ccc1C=Nc1ccccc1N=Cc1ccc(OCCN2CCOCC2)cc1O.[Ga+3]	0.28

---

We begin with a simple list: items and their reported Papp.
Experiment: Caco-2 permeability screening
Format: in vitro ADME
Settings: Caco-2; ranked by Papp against control drugs; read-out: Permeability ranking
Method: Caco-2 cells were received from American Type Culture Collection and certified mycoplasma free. Cells were seeded on transwell plates (CoStar, growth area 0.33 cm^2/well, polycarbonate membrane, 0.33 μm pore size) between passage 20 and 27 and then analyzed between 21 and 25 days after wells were seeded to ensure enterocyte-like differentiation. […] Samples were vortexed and analyzed by LC-MS/MS as described earlier. […] The calculation of Papp was determined using eq. […]
measurement-type: Papp

smiles-text	measured-value
CC(=Nc1ccccc1/N=C/c1ccc(OCCCO)cc1O)c1ccccc1O.[Ga+3]	< 1.12 ×10⁻⁶ cm/s
O=C(O)CCOc1ccc(C=Nc2ccccc2N=Cc2ccc(OCCC(=O)O)cc2O)c(O)c1.[Ga+3]	< 1.12 ×10⁻⁶ cm/s
CC(=Nc1ccccc1N=Cc1ccc(OCCN2CCOCC2)cc1O)c1ccccc1O.[Ga+3]	< 1.12 ×10⁻⁶ cm/s

---

Target: HasA (Pseudomonas aeruginosa)
Sequence (G3XD33 entry or part of it): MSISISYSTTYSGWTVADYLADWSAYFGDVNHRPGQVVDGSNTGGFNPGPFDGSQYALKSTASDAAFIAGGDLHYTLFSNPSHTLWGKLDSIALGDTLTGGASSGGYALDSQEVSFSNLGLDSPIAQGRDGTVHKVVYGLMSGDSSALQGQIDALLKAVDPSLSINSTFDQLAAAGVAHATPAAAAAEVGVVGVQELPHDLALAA
Test: Kd determination by fluorescence quenching of apo-HasAp
Settings: read-out: HasA Kd; apo-HasAp 1 μM, 20 mM sodium phosphate pH 7.4, 25 °C, one-site binding fit

smiles-text	unit-of-measurement	Kd
Oc1cc(OCCN2CCOCC2)ccc1C=Nc1ccccc1N=Cc1ccc(OCCN2CCOCC2)cc1O.[Ga+3]	nM	1500
COCCOc1ccc(/C=N/c2ccccc2/N=C/c2ccc(OCCOC)cc2O)c(O)c1.[Ga+3]	nM	960
COCCOCCOc1ccc(/C=N/c2ccccc2N=C(C)c2ccccc2O)c(O)c1.[Ga+3]	nM	3400
CC(=Nc1ccccc1N=Cc1ccc(OCCC(=O)O)cc1O)c1ccccc1O.[Ga+3]	nM	330
